Taken from patent US20140120095A1.

# Study target: T1, recombinant human DLL4 (C-terminally His-tagged extracellular domain, R&D Systems) (human, UniProt Q9NR61 25-522, biotinylated in the competition ELISA)
# T1 construct: also called rhDLL4; hDLL4
# T1 sequence (Q9NR61 25-522): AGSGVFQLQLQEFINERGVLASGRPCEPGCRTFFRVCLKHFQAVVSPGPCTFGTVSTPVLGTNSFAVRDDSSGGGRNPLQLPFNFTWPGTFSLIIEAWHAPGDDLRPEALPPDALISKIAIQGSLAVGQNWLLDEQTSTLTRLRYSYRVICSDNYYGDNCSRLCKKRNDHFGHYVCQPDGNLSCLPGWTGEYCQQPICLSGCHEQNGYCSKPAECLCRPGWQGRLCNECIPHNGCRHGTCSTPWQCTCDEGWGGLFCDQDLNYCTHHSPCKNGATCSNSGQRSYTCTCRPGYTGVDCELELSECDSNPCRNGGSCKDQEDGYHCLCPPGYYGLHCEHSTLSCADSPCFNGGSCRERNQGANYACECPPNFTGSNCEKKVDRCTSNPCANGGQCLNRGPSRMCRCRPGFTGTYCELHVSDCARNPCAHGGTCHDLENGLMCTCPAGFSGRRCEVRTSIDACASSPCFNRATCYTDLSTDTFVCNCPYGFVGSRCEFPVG
# Test summary: binding ELISA on recombinant human DLL4, OD 450 nm
Each record here notes measured EC50 (read off the curve).

# Binder, EC50 (read off the curve)
data = [
    ("DLLBII129E11 (VHH, not shown: small tags and cut ends) VHH: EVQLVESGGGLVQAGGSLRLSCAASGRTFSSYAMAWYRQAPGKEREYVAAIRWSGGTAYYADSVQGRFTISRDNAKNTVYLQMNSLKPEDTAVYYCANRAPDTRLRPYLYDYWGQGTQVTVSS", "~0.7 nM"),
]

Task: Recorded EC50 (read off the curve) of DLLBII101G08 (VHH, not shown: small tags and cut ends, parent VHH; also called 101G08 (wt); 101G8) VHH: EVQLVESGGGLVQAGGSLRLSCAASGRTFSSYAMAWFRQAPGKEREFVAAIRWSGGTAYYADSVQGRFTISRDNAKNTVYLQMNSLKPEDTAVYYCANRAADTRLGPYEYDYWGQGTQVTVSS , please.
Result: ~4 nM

Task: Recorded EC50 (read off the curve) of DLLBII129D08 (VHH, not shown: small tags and cut ends) VHH: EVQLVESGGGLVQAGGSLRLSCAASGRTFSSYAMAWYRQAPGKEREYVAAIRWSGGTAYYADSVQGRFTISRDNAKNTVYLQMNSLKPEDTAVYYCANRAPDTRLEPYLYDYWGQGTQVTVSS , please.
Result: ~0.7 nM

Task: Recorded EC50 (read off the curve) of DLLBII129B05 (VHH, not shown: small tags and cut ends) VHH: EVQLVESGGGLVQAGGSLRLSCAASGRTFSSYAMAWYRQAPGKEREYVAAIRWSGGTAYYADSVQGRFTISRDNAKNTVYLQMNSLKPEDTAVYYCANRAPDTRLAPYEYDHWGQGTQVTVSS , please.
Result: ~0.7 nM
